assay explanation: self-splicing fitness, log relative to wild type (ln ratio); higher = more splicing; Tetrahymena group I intron in knt gene, E. coli kanamycin selection, DiMSum; sequences stand for … in CUCUCU…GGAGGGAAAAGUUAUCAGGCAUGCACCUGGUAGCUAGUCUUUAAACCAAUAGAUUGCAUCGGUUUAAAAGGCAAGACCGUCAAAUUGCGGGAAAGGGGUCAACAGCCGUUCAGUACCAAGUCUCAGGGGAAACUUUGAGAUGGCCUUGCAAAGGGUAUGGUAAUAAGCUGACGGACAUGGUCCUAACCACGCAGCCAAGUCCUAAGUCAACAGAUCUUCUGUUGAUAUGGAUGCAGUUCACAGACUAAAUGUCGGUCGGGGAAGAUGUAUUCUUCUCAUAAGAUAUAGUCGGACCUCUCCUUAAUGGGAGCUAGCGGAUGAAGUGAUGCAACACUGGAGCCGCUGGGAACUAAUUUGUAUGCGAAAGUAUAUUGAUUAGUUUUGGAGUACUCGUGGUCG;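 note: selection with 25 µg/mL kanamycin versus none on LB agar overnight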
stated conditions: 37 °C
I'd appreciate it if you could supply self-splicing fitness (ln) values for the items below.

// lookup self-splicing fitness (ln) for "UGUUAGCAAUAUUACGGAUA"
-1.45

Given the sequence "GUACAGCAAUAUUACGGGUA" , what is its reported self-splicing fitness (ln)?
-1.93

What does the record list as self-splicing fitness (ln) for "ACCCAGCAAUAUUACGCGAA" ?
-0.703

Which self-splicing fitness (ln) value belongs to "GGAUAGCAAUAUUACGUUAG" ?
-2

// returns reported self-splicing fitness (ln) for input "CAAUAGCAAUAUUACGCAUG"
-0.845

Consider the sequence shown here: "CUUUAGCAAUAUUACGGCAU" What is its recorded self-splicing fitness (ln)?
-2.9

For the sequence shown here, "AGAGAGCAAUAUUACGGUCC" , give the reported self-splicing fitness (ln).
-0.974

For the sequence shown here, "GCUCAGCAAUAUUACGUGGG" , give the reported self-splicing fitness (ln).
-1.85

* * *

I'd appreciate it if you could supply self-splicing fitness (ln) values for the items below.
assay explanation: self-splicing fitness, log relative to wild type (ln ratio); higher = more splicing; Tetrahymena group I intron in knt gene, E. coli kanamycin selection, DiMSum; sequences stand for … in CUCUCU…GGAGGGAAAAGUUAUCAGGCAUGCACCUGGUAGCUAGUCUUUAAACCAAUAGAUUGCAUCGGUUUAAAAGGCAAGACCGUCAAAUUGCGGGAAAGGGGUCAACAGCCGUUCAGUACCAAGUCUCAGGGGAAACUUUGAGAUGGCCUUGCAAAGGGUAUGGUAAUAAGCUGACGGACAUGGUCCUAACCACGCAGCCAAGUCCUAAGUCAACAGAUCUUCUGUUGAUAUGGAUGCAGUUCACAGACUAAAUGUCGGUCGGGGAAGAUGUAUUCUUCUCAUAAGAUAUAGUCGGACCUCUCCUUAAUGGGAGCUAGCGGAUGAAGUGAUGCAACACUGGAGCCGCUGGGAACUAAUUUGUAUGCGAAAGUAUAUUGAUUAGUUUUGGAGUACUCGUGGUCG
stated conditions: 37 °C
Lab note: jot the number down without any unit.

Return reported self-splicing fitness (ln); argument: "GGAUAGCAAUAUUACGCAGA"
-1.58

Can you share its self-splicing fitness (ln)? I mean this sequence: "CCGGAGCAAUAUUACGGAGC"
-2.55

Record request: self-splicing fitness (ln) value, item "CGACAGCAAUAUUACGUAUA"
-1.54

I would be grateful if you could share the reported self-splicing fitness (ln) for "GUACAGCAAUAUUACGCUCA" .
-0.188

What measured self-splicing fitness (ln) goes with "CACAAGCAAUAUUACGGGUG" ?
-2.94

Dear colleague, I am looking for the recorded self-splicing fitness (ln) of the following sequence: "AAGGAGCAAUAUUACGAUCG"
-1.8

Entry "ACCAAGCAAUAUUACGAGUU" : reported self-splicing fitness (ln) = ?
-1.99

What value of self-splicing fitness (ln) has been recorded for this entry: "ACUCAGCAAUAUUACGAAUC"
-1.05

self-splicing fitness (ln) lookup needed for "AAUUAGCAAUAUUACGAUGG" , thanks.
-0.247

Could you tell me which self-splicing fitness (ln) is on file for "CUUGAGCAAUAUUACGACGA" ?
-2.51

Requested field: self-splicing fitness (ln). Item: "ACGCAGCAAUAUUACGAAAC"
-1.58

I would be grateful if you could share the reported self-splicing fitness (ln) for "AUGAAGCAAUAUUACGGAUU" .
-0.689

Give the measured self-splicing fitness (ln) of "CCAAAGCAAUAUUACGCGUA" .
-3.75

Find the recorded self-splicing fitness (ln) belonging to "CUAAAGCAAUAUUACGUAAA" and report it.
-3.36

Recorded self-splicing fitness (ln) of "CGUGAGCAAUAUUACGUAGA" , please.
-2.89

# input sequence: "CGAAAGCAAUAUUACGCGUG" ; wanted: its self-splicing fitness (ln)
0.12

Request the reported self-splicing fitness (ln) associated with "ACUGAGCAAUAUUACGUAAC"
-3.36

Entry "GAACAGCAAUAUUACGAAUG" has what self-splicing fitness (ln)?
-1.52

self-splicing fitness (ln) lookup needed for "CCCCAGCAAUAUUACGCCCU" , thanks.
-1.98

Form field: reported self-splicing fitness (ln) of "AAGCAGCAAUAUUACGGAUA"
-1.72

For the sequence shown here, "AGGUAGCAAUAUUACGGAAG" , give the reported self-splicing fitness (ln).
-2.5

Can you look up the measured self-splicing fitness (ln) of "GUUUAGCAAUAUUACGACCC" for me?
-0.133

So what does the record say about self-splicing fitness (ln) for "CGUGAGCAAUAUUACGUGCG" ?
-2.6

Sample "UGGGAGCAAUAUUACGACAU" — what was its self-splicing fitness (ln)?
-2.9

Any idea what self-splicing fitness (ln) was measured for "UCCGAGCAAUAUUACGGGGG" ?
-2.47

Which self-splicing fitness (ln) reading was recorded for the sequence "CAUAAGCAAUAUUACGACUU" ?
-1.5

// returns reported self-splicing fitness (ln) for input "CCCCAGCAAUAUUACGAGGC"
-3.1

So what's the measured self-splicing fitness (ln) for this one? "ACGGAGCAAUAUUACGGCGG"
-0.413

What measured self-splicing fitness (ln) goes with "AAAAAGCAAUAUUACGGGCA" ?
-0.103

Look up self-splicing fitness (ln): "CACGAGCAAUAUUACGUCUA"
-1.55

What measured self-splicing fitness (ln) goes with "UAUCAGCAAUAUUACGUAAC" ?
-0.246

What value of self-splicing fitness (ln) has been recorded for this entry: "UGGAAGCAAUAUUACGGUAA"
-0.845

Name the recorded self-splicing fitness (ln) for "GACCAGCAAUAUUACGUGCA" .
-0.122

Recorded self-splicing fitness (ln) for "CUGCAGCAAUAUUACGUGGC" , please?
-3.03

Could you share which self-splicing fitness (ln) value was measured for "CACGAGCAAUAUUACGGUAA" ?
-2.37

Suppose we examine the sequence "CGGUAGCAAUAUUACGAGGU" ; what self-splicing fitness (ln) value has been reported?
-2.03

Endpoint output: self-splicing fitness (ln) of "CCGCAGCAAUAUUACGCUAC" . Value?
-2.37

Endpoint output: self-splicing fitness (ln) of "AUAAAGCAAUAUUACGUUCC" . Value?
-0.885

// lookup self-splicing fitness (ln) for "GCAGAGCAAUAUUACGACUC"
-1.38

Which self-splicing fitness (ln) value belongs to "CACUAGCAAUAUUACGCCUU" ?
-1.19

Given the entry "AGGUAGCAAUAUUACGGUCU" , report its measured self-splicing fitness (ln).
-0.107

Report self-splicing fitness (ln) for "UCGAAGCAAUAUUACGUCGA" please.
-1.78

I'd like to know its self-splicing fitness (ln). The sequence in question is "UCCCAGCAAUAUUACGCUCU"
-1.7

What value of self-splicing fitness (ln) has been recorded for this entry: "CUUGAGCAAUAUUACGGCGG"
-0.746

Recorded self-splicing fitness (ln) of "CUACAGCAAUAUUACGUCAA" , please.
-1.82

# get_value(readout='self-splicing fitness (ln)', item= "AACGAGCAAUAUUACGACUG" )
-0.348

Requested field: self-splicing fitness (ln). Item: "GUGGAGCAAUAUUACGUCAU"
-3.24

Need self-splicing fitness (ln), item "CCGUAGCAAUAUUACGGGGC"
-2.31

May I ask what self-splicing fitness (ln) has been recorded for "CGAAAGCAAUAUUACGAGGG" ?
-2.17

So what does the record say about self-splicing fitness (ln) for "UGGUAGCAAUAUUACGUACG" ?
-0.203

Consider the sequence shown here: "UCGAAGCAAUAUUACGGGUA" What is its recorded self-splicing fitness (ln)?
-0.123

Dear colleague, I am looking for the recorded self-splicing fitness (ln) of the following sequence: "CGACAGCAAUAUUACGUUGG"
-1.54

Please report the recorded self-splicing fitness (ln) for "AUUUAGCAAUAUUACGCAAU" .
-1.86

Which self-splicing fitness (ln) value is on record for "UCCGAGCAAUAUUACGUAGU" ?
-2.71

What measured self-splicing fitness (ln) goes with "UGAAAGCAAUAUUACGAGUU" ?
-0.915

For the sequence shown here, "AGGCAGCAAUAUUACGCGGA" , give the reported self-splicing fitness (ln).
-0.664

# lookup: self-splicing fitness (ln) of "UCGAAGCAAUAUUACGGGGG"
-1.39

Which self-splicing fitness (ln) value is on record for "AUGCAGCAAUAUUACGUAUG" ?
-1.09

What does the record list as self-splicing fitness (ln) for "CGGAAGCAAUAUUACGGCAA" ?
-1.41

Endpoint output: self-splicing fitness (ln) of "GUGCAGCAAUAUUACGUAUU" . Value?
-1.78

Can you share its self-splicing fitness (ln)? I mean this sequence: "GCACAGCAAUAUUACGAUCU"
0.0668

Recorded self-splicing fitness (ln) of "CGCAAGCAAUAUUACGAUCU" , please.
-0.39

Which self-splicing fitness (ln) is listed for "UCAGAGCAAUAUUACGCAUU" ?
-0.634

Quick check: self-splicing fitness (ln) of "CAACAGCAAUAUUACGCAUC" ?
-2.29

Which measured self-splicing fitness (ln) value corresponds to "UGAAAGCAAUAUUACGAUGG" ?
-0.618

Report self-splicing fitness (ln) for "UCUGAGCAAUAUUACGACAG" please.
-1.04

Param item = "GUGGAGCAAUAUUACGCGCG" ; retrieve measured self-splicing fitness (ln).
-2.11
